Give GI50 for every item shown.
Tested on: A498
Test: NCI tumour cell line growth inhibition, 48 h
The source made the active and inactive calls. Rule as the data show it: active = GI50 up to about 1.1 µM and inactive = higher.

Q: Which GI50 is reported with A498 for this entry: COC(=O)C1CC2c3c(c4ccccc4n3C)CC(C1=O)N2C (centres undefined) ?
Result: 28.2 µM (inactive)

Q: Which GI50 is reported with A498 for this entry: CN(CCNC(=O)c1nn(C)c2c1Cc1ccccc1-2)CCNC(=O)c1nn(C)c2c1Cc1ccccc1-2 ?
Result: 15.2 µM (inactive)

Q: Which GI50 is reported with A498 for this entry: COc1cccc2c(=O)oc(-c3ccccc3C)nc12 ?
Result: > 100 µM (inactive)

Q: Which GI50 is reported with A498 for this entry: Clc1ccc(COc2ccccc2/C=N/c2c(-c3ccco3)nc3ccccn23)c(Cl)c1 ?
Result: > 100 µM (inactive)

Q: Which GI50 is reported with A498 for this entry: O=c1c2ccccc2sc2ccccc12 ?
Result: > 100 µM (inactive)

Q: Which GI50 is reported with A498 for this entry: N#CCC(=O)N1CCCOCCC1 ?
Result: > 100 µM (inactive)

Q: Which GI50 is reported with A498 for this entry: C=CN1CCN(c2ccccc2)P1(=O)Oc1ccccc1 (centres undefined) ?
Result: > 100 µM (inactive)

Q: Which GI50 is reported with A498 for this entry: COC1=CC(=O)c2c(O)c3c(c(O)c2C1=O)C[C@](C)(O)C[C@@H]3O ?
Result: 7.66 µM (inactive)

Q: Which GI50 is reported with A498 for this entry: Cc1cccc(-c2cc(O)c3c(C)ccnc3n2)c1 ?
Result: 0.791 µM (active)

Q: Which GI50 is reported with A498 for this entry: CN1CCN(C2=NCCO2)CC1 ?
Result: > 100 µM (inactive)

Q: Which GI50 is reported with A498 for this entry: CC1=C(/C=C/Cl)CC(Cl)C(C)(Cl)C1 (centres undefined) ?
Result: > 100 µM (inactive)

Q: Which GI50 is reported with A498 for this entry: CCCCCNC(=O)OC1CCn2c1nc1c2C(=O)C(C)=C(N2CC2)C1=O (centres undefined) ?
Result: 1.75 µM (inactive)

Q: Which GI50 is reported with A498 for this entry: O=C(N/N=C/c1cc(-c2ccccc2Cl)c(-c2ccccc2Cl)o1)c1ccncc1 ?
Result: > 100 µM (inactive)

Q: Which GI50 is reported with A498 for this entry: CCOP(=O)(OCC)C1CC(C)OC1=O (centres undefined) ?
Result: > 100 µM (inactive)

Q: Which GI50 is reported with A498 for this entry: Cc1ccccc1-n1c(N)c(-c2nc3ccccc3[nH]2)sc1=S ?
Result: 40.1 µM (inactive)

Q: Which GI50 is reported with A498 for this entry: Cc1c2cc[n+](C)cc2c(COC2OC(CO)C(O)C2O)c2c3ccccc3n(C)c12 (centres undefined) ?
Result: > 100 µM (inactive)

Q: Which GI50 is reported with A498 for this entry: CCN(CC)CCCNc1nnc(C)c2[nH]c3ccccc3c12 ?
Result: 17.2 µM (inactive)

Q: Which GI50 is reported with A498 for this entry: COC(=O)/C(Cl)=C1/CC1COCc1ccccc1 (centres undefined) ?
Result: 22.6 µM (inactive)

Q: Which GI50 is reported with A498 for this entry: CC(N)/C(N)=N/O (centres undefined) ?
Result: > 100 µM (inactive)

Q: Which GI50 is reported with A498 for this entry: CCOP(=O)(O)C(Nc1ccc(/N=N/c2ccccc2)cc1)c1cccc(C(Nc2ccc(/N=N/c3ccccc3)cc2)P(=O)(O)OCC)c1 (centres undefined) ?
Result: 23 µM (inactive)

Q: Which GI50 is reported with A498 for this entry: CC(=O)OCC1OC(NC(=S)Nn2c(-c3ccccc3)nc3ccccc3c2=O)C(OC(C)=O)C(OC(C)=O)C1OC(C)=O (centres undefined) ?
Result: > 100 µM (inactive)

Q: Which GI50 is reported with A498 for this entry: CNc1cc2c(c3ccccc13)C(CCl)CN2C(=O)c1cc2cc(OC)c(OC)c(OC)c2[nH]1 (centres undefined) ?
Result: 0.00261 µM (active)

Q: Which GI50 is reported with A498 for this entry: NNC(=S)N/N=C(\c1nc2ccc(Cl)cc2nc1O)C(O)c1ccc(Cl)cc1Cl (centres undefined) ?
Result: > 100 µM (inactive)

Q: Which GI50 is reported with A498 for this entry: CC(C)c1cc(C(C)C)c(B(c2ccccc2)c2ccccc2)c(C(C)C)c1Br ?
Result: > 100 µM (inactive)

Q: Which GI50 is reported with A498 for this entry: O=C1CCC2SC1CCC2=O ?
Result: > 100 µM (inactive)

Q: Which GI50 is reported with A498 for this entry: CCOC(=O)c1cc(=O)c2cccc3c2n1CCS3 ?
Result: 83.8 µM (inactive)

Q: Which GI50 is reported with A498 for this entry: COc1ccc(-c2c(-c3ccc(OC)cc3)n3c(=O)n(C)c(=O)n23)cc1 ?
Result: 19.4 µM (inactive)

Q: Which GI50 is reported with A498 for this entry: COc1cccc2c1C(=O)c1c(O)c3c(c(O)c1C2=O)C[C@@](O)(C(=O)CO)C[C@@H]3OC1CC(N2CCOCC2C#N)C(O)C(C)O1 (some centres undefined) ?
Result: 2.58e-05 µM (active)

Q: Which GI50 is reported with A498 for this entry: O=S1(=O)NN=C(NCc2ccc(Cl)c(Cl)c2)c2ccccc21 ?
Result: > 100 µM (inactive)

Q: Which GI50 is reported with A498 for this entry: O=C(NNC(=O)c1csc(NC(=S)NC2CCCCC2)n1)c1ccccc1 ?
Result: 38 µM (inactive)

Q: Which GI50 is reported with A498 for this entry: N=NCC(=O)OC(COCc1ccccc1)COCc1ccccc1 ?
Result: > 100 µM (inactive)

Q: Which GI50 is reported with A498 for this entry: CC(=O)N/N=C1\NC(=O)C[C@H]2[C@@H]3CC=C4C[C@@H](OC(C)=O)CC[C@]4(C)[C@H]3CC[C@]12C ?
Result: 18.7 µM (inactive)

Q: Which GI50 is reported with A498 for this entry: C#Cc1c(C)c(/C=C/C(C)=C/C(=O)OC)n(C)c1C ?
Result: > 100 µM (inactive)

Q: Which GI50 is reported with A498 for this entry: O=C(C=P(c1ccccc1)(c1ccccc1)c1ccccc1)c1ccc(-c2ccc(F)cc2F)cc1 ?
Result: 2.64 µM (inactive)

Q: Which GI50 is reported with A498 for this entry: CN(Cc1cc(C(C)(C)C)cc(Br)c1O)Cc1cc(C(C)(C)C)cc(Br)c1O ?
Result: 2.75 µM (inactive)

Q: Which GI50 is reported with A498 for this entry: CC(=O)OCC1OC(OC2CC3C(C)(C)C(O)CC[C@]3(C)C3CCC45CC4(CCC5[C@@H](C)CC(O)C(O)C(C)(C)O)[C@]23C)C(O)C(O)C1O (some centres undefined) ?
Result: > 10 µM (inactive)

Q: Which GI50 is reported with A498 for this entry: CC1C2C=C(O)C(=O)C(C2=O)C1c1ccccc1 (centres undefined) ?
Result: > 100 µM (inactive)

Q: Which GI50 is reported with A498 for this entry: CSc1ncc2c(C#N)c3ccccn3c(=O)c2n1 ?
Result: > 100 µM (inactive)

Q: Which GI50 is reported with A498 for this entry: O=C(NNC(=O)c1ccccc1O)c1cccs1 ?
Result: > 100 µM (inactive)

Q: Which GI50 is reported with A498 for this entry: COc1cc2c3c(c1)CCCN3CCC2 ?
Result: > 10 µM (inactive)

Q: Which GI50 is reported with A498 for this entry: COc1ccc(-c2csc(Cc3nc4ccccc4c(=O)n3-c3ccc(Cl)cc3)n2)cc1 ?
Result: 70.8 µM (inactive)

Q: Which GI50 is reported with A498 for this entry: CC1CC2OC(=N)C1(C#N)C2(C#N)C#N (centres undefined) ?
Result: 20.3 µM (inactive)

Q: Which GI50 is reported with A498 for this entry: COc1ccc(OC)c(NC(=O)c2c(Cl)c(Cl)c(Cl)c(Cl)c2-c2nc3ccccc3[nH]2)c1 ?
Result: > 100 µM (inactive)

Q: Which GI50 is reported with A498 for this entry: O=c1ccc2c(Cl)cccc2o1 ?
Result: > 100 µM (inactive)

###

Test system: HOP-92
Experiment: NCI tumour cell line growth inhibition, 48 h
The source made the active and inactive calls. No stated cut-off is given here; in the data, active = GI50 up to about 1.1 µM and inactive = higher.
parameter: GI50

Q: Item CC(CC=O)Nc1nn2c(=O)c3ccccc3nc2s1 (stereo unspecified) has what recorded GI50?
Result: > 100 µM (inactive)

Q: Item CC1=CC(=O)N2C(OC[C@@H]2c2ccccc2)O1 (stereo partly specified) has what recorded GI50?
Result: > 100 µM (inactive)

Q: Item CSc1ncc2c(C#N)c3ccccn3c(=O)c2n1 has what recorded GI50?
Result: > 100 µM (inactive)

Q: Item CN(C)CCNC(=O)c1cccc2c1Nc1ccccc1S2 has what recorded GI50?
Result: 2.08 µM (inactive)

Q: Item CC(C)N1CN(C(C(=O)N[C@@H]2C(=O)N3C2SC(C)(C)C3C(=O)O)c2ccc(O)cc2)CSC1=S (stereo partly specified) has what recorded GI50?
Result: > 100 µM (inactive)

Q: Item CCOC(=O)c1ccc(/N=c2\oc3ccc(OC)cc3cc2-c2nc3ccccc3[nH]2)cc1 has what recorded GI50?
Result: > 100 µM (inactive)

All figures here come from ChEMBL document CHEMBL1201862.
